# apparent KD of MS2 coat protein listing for each entry below
tested on: MS2 coat protein; assay: apparent KD of MS2 coat protein; designed switch direction (-1 OFF switch, 1 ON switch): -1; higher = weaker reporter binding; conditions: input ligand: none
Numeric answer plus unit only.

Below, 5 sequences whose answers are already recorded.
>  <Chain sequence>
UUAAAUCAUGUAGGAUAUGCUUUGCAAAGCGAAGCAGAAGGACAUGAGGAUCACCCAUGUGCUAGCGUCCGAGAACGGAUGCAA [Mat - Exclusion NG 1 - Mod of JL - D65] (Eterna round: R96, puzzle: Exclusion NG 1)

>  <Experimental target>
MS2 coat protein

>  <apparent KD of MS2 coat protein>
61.5 nM

$$$$
>  <Chain sequence>
AAACACUGAGGAUAUGCGUAACAACAAAGCCUCACGUGCCAACAUGAGGAUCACCCAUGUAGAAGGCAGUCCAA [Mod R3 Insanara 17 - Jieux - Exclusion 2] (Eterna round: R97, puzzle: Exclusion 2)

>  <Experimental target>
MS2 coat protein

>  <apparent KD of MS2 coat protein>
25.1 nM

$$$$
>  <Chain sequence>
UGAGUGCUGCGAGGAUAUACAUGAGGAUCACCCAUGUUUACCUGUGAGGCUUUGCCUCACAGGUUGUAGAAGGCGCAGUACUCU [JL ENG2 1.15] (Eterna round: R96, puzzle: Exclusion NG 2)

>  <Experimental target>
MS2 coat protein

>  <apparent KD of MS2 coat protein>
12.4 nM

$$$$
>  <Chain sequence>
UAUAACAGAGGAUAUGCGAAUAAAUAAAACUUUUUUUUUUAACAUGAGGAUCACCCAUGUAGAAGGCUGAUAUU [Ex2 #22] (Eterna round: R97, puzzle: Exclusion 2)

>  <Experimental target>
MS2 coat protein

>  <apparent KD of MS2 coat protein>
51.6 nM

$$$$
>  <Chain sequence>
CUGUGUAGACAGGAUAUGCUGUACAAAAGUACAGCAGAAGGGUCUACAUGAGGAUCACCCAUGUGUACCUCAUG [)mei Ex6 B26] (Eterna round: R97, puzzle: Exclusion 6)

>  <Experimental target>
MS2 coat protein

>  <apparent KD of MS2 coat protein>
106 nM

$$$$

Sample UGUUGUCGCGUAGGAUAUGUAUGAGGAUCACCCAUUAAUAAAUUUUAACCACGAGGAUCACCCGUGUAGAAGGACGGGACAACA [pwkr exNG2 2xF5 1xFMN.16] (Eterna round: R96, puzzle: Exclusion NG 2) — what was its apparent KD of MS2 coat protein?
30.6 nM

###

system: MS2 coat protein; assay: apparent KD of MS2 coat protein; designed switch direction (-1 OFF switch, 1 ON switch): 1; higher = weaker reporter binding; conditions: input ligand: none
# apparent KD of MS2 coat protein listing for each entry below
Give just the numeric value; nM need not be written.

>  <Chain sequence>
AGGCCACCGGAAGGAUAUGGCACCUUAUUGGUGCCAGAAGGUCCAACAUGAGGAUCACCCAUGUGGGUGGGUUCUAAUGAACAU [Fiskers NG1 - 2] (Eterna round: R96, puzzle: Same State NG 1)

>  <Unit symbol>
nM

>  <apparent KD of MS2 coat protein>
47.9

$$$$
>  <Chain sequence>
GGAAUAUUUACAGGAUAUCAUUUGUAAAUUCGAUGAGAAGGGUAGAUGUCUUACACGACGUGUUACAUGAGGAUCACCCAUGUU [SameState NG1 #7] (Eterna round: R96, puzzle: Same State NG 1)

>  <Unit symbol>
nM

>  <apparent KD of MS2 coat protein>
146

$$$$

Sample AUGCCAAAGCGAGGAUAUGGAGCCUUAUUGGCUCCAGAAGGUGUGACAUGAGGAUCACCCAUGUGGCAGUGGUCUAAUGACCAC [Eli NG1ss - 41] (Eterna round: R96, puzzle: Same State NG 1) — what was its apparent KD of MS2 coat protein?
86.7

###

# apparent KD of K4 kissing-loop reporter listing for each entry below
system: K4 kissing-loop RNA reporter; experiment: apparent KD of K4 kissing-loop reporter; higher = weaker reporter binding; conditions: Eterna round: R107; input ligand: arginine 13.2 mM
Numeric answer plus unit only.

>  <Chain sequence>
AGCUCAGAGUGACUCGAUAAGAGUCACAAACGAGGACCGGUACGGCCGCCACUCGAAACAAAGAGAGUGAUGUUCUCGCUGAGCA [FiskerMod 10 - Jieux - Same State Tryptophan A]

>  <apparent KD of K4 kissing-loop reporter>
121 nM

$$$$

# value lookup — system K4 kissing-loop RNA reporter, readout apparent KD of K4 kissing-loop reporter, item AACAGCAAUGCGGCCGCCACUUCGAGGUCAGUGAUGUUGACAGAAUUAAAUAAAGAUCCCAAGAGGAGGACCGGGCAGUGCUGUU [whbob_SS_Tryp_B_t24]
417 nM

# value lookup — system K4 kissing-loop RNA reporter, readout apparent KD of K4 kissing-loop reporter, item AAAUAAAGGGCGGCCGCCACUGAUCGCCUCCGCGUGGGUAUGUAGUGAUGUUAUAUGGCCGCCAUCAGGACCGGGCCAAAUAAAA [#10 K4 Tryptophan B Same State]
187 nM

# value lookup — system K4 kissing-loop RNA reporter, readout apparent KD of K4 kissing-loop reporter, item AAUAGAUCAUUAUAGUGAUAAAUGCCUGAUACCAGUGAGAGAUGGCACCCUUGGCAGCAGAGAUGAGUGAUGUUCAGACUGUAAA [theeternabot_sameState_KL_Theo_A_11]
118 nM

# value lookup — system K4 kissing-loop RNA reporter, readout apparent KD of K4 kissing-loop reporter, item GAAGGUCAAAGACCUUCGUGCACAACUGAUACCAGUCGCGAAAGCGACCCUUGGCAGCAGGGCAGUGAUGUUGCCAGUGCACAAA [Omei KL Theo A SS A v3]
166 nM

# value lookup — system K4 kissing-loop RNA reporter, readout apparent KD of K4 kissing-loop reporter, item GGUCGAGUGAUGUUCGAUGUUAUGCAUUCAGAGGAUAUAGGAUUGGCUAGAAGGCUGAAUCGAUCUUCGAGUGAUGUUCGAGGAU [Same State FMN A GF 8]
112 nM

# value lookup — system K4 kissing-loop RNA reporter, readout apparent KD of K4 kissing-loop reporter, item GUAAGACCGGGACUCCAGUGAUGUUGGAGGCAGGAUAUCCAGUCGAGGAGAAGGGCCAGGGAUAUCGAGCUGCUCGGUUUGUAGU [Argeis]
69.5 nM

###

tested on: K4 kissing-loop RNA reporter; experiment: apparent KD of K4 kissing-loop reporter; higher = weaker reporter binding; settings: Eterna round: R107; input ligand: tryptophan 2.4 mM
apparent KD of K4 kissing-loop reporter vs 0.2 µM: at or above is true, below is false.

For orientation, consider the following solved cases.
>  <Chain sequence>
GGUAGCUAGGUAGGAUAUAGCUAGUGGAGUGAUGUUCCACGAUACACGAGUGAUGUUCGUACCCUGCUAGAAGGGCCUAGCUACC

>  <Experimental target>
K4 kissing-loop RNA reporter

>  <Classification>
false

$$$$
>  <Chain sequence>
AAUUUAUAUUUAUUCUUUAAAUGUUCAGAAGGAGCGUGAAUUAUCACAGGUAGGUCGCUGGGCUAGUGAUGUUGGCUAUAUACUA [whbob_Ex_Arginine_A_2t125]

>  <Experimental target>
K4 kissing-loop RNA reporter

>  <Classification>
false

$$$$
>  <Chain sequence>
UGUAUGUGAUUUGAUACCAGACCAGGUGGAGGAAUCUGAGUGAUGUUCAGGUAGGUUCUGGUCCCUUGGCAGCAAAUCGCAUACU [KL-SSTheoB19]

>  <Experimental target>
K4 kissing-loop RNA reporter;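 further: bound reporter read as fluorescence of individual clusters on recovered sequencing chips by microscopy, with normalized cluster intensities fitted with a binding model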

>  <Classification>
false

$$$$

Could you tell me if the measured apparent KD of K4 kissing-loop reporter of GGAGGAGAGGGAAGGAGCGUGAAAGAGAAAGAAUAUAGUGAUGUUAUAUAGAAGAAAGAAUCACAGGUAGGUCGCCCGGAGGAGG [SSArgB.A] reaches 0.2 µM or more?
true

Could you tell me if the measured apparent KD of K4 kissing-loop reporter of AAAUAAAGCAGUCACCCAGUGAUGUUGGAAGGAGCGUGCGAAAGCACAGGUAGGUCGCCAAAACCUAAUACUGGCUGCUAAAUAA [#03 K4 Arginine A Exclusion] reaches 0.2 µM or more?
false

Could you tell me if the measured apparent KD of K4 kissing-loop reporter of AAAAUUGCGGUCGAAUUAACUUCUUGCAUACGAGGACCGGUACGGCCGCCACUCGAGUCAAGUGAUGUUUGAUAAUCUAUUAUUA [JR_ExcTryptoA_Sub011] reaches 0.2 µM or more?
false

Could you tell me if the measured apparent KD of K4 kissing-loop reporter of ACAGGAUCGAAAGAUCCUGAGCAGUCUAACCGAGGACCGGUACGGCCGCCACUCGGAGUGAUGUUCCGAGGACUGCAAAAUAAAA [#SwitchBubble 2 #CoaxialStacking] reaches 0.2 µM or more?
true

###

tested on: MS2 coat protein; experiment: apparent KD of MS2 coat protein, switch ON state; designed switch direction (-1 OFF switch, 1 ON switch): -1; higher = weaker reporter binding; settings: FMN input: 0 or 200 uM; Eterna round: R93 (includes R88 designs)
apparent KD of MS2 coat protein vs 50 nM: at or above is yes, below is no.

>  <Chain sequence>
AGAUGACAAGGAUAUACUAGGGAUGAUAGUAGAGAAGAAGAACAUGAGGAUCACCCAUGUAGAAGGUGUAAGAA [JR_Exc002_Sub1702]

>  <Classification>
yes

$$$$
>  <Chain sequence>
AUCAUCCUAGGAUAUACAUGGAUAUACAUUCAUGUGGACCUACAUGAGGAUCACCCAUGUAGAAGGAGGAUGAA [Mat - Same state - Mayanna Mod - D139]

>  <Classification>
no

$$$$
>  <Chain sequence>
AAGAAACAUGAGGAUCACCCAUGUGAGGAUAUGAAAAAGAAAAGAAAAGAAAGAAGAAUCAGAAGGCACAAAGG [Nebkaure Khety II]

>  <Classification>
no

$$$$
>  <Chain sequence>
AACAUGUGAGGAUAUUAAAGAAAAGAAAAGAAAGAAAAGAAUAAGAAGGCACAUGAGGAUCACCCAUGUAAGAA [EteRNA is fun!]

>  <Classification>
no

$$$$
>  <Chain sequence>
ACAAAUGUAGGAUAUACAUGAGGAUCACCCAUGUGGCACAAACAGCAAACAAGACAAAGUAGAAGGACAACGAC [JR_Exc003-Sub901]

>  <Classification>
no

$$$$

Now for another entry.
Could you tell me if the measured apparent KD of MS2 coat protein of GAAAAGCAAGGAUAUACAUGAGGAUCACCCAUGUGGAAUGGCGUGACCUAAAGAAAAGGUAGAAGGUGCACGUG [Soangebi] reaches 50 nM or more?
yes
